Assign Ratio Ki to each entry below.
# Organism: Homo sapiens
# ASSAY_PROCEDURE: Selectivity for human dopamine D2L receptor over human dopamine D4 receptor
// return a plain number; no unit text

Name the reported Ratio Ki value associated with the compound "COc1ccc2[nH]cc(CN3CCC(O)(c4ccc(SC)cc4)CC3)c2c1"
103

Next record, please: "C=CCOC1(c2ccc(Cl)cc2)CCN(Cc2c[nH]c3ccccc23)CC1"
7

And the next one, "OC1(Cc2ccc(Cl)cc2)CCN(Cc2c[nH]c3ccccc23)CC1" ?
1

Now this one: "Cn1cc(CN2CCC(O)(c3ccc(Cl)cc3)CC2)c2ccccc21"
174

Proceed to "CC(=O)NC1(c2ccc(Cl)cc2)CCN(Cc2c[nH]c3ccccc23)CC1"
4

Would you kindly repeat that for "OC1(c2ccc(Cl)cc2)CCN(Cc2n[nH]c3ccccc23)CC1" ?
4

And what about the compound "CCCCCCn1cc(CN2CCC(O)(c3ccc(Cl)cc3)CC2)c2ccccc21" ?
47

Same read-out for "CSc1ccc(C2(O)CCN(Cc3c[nH]c4ccccc34)CC2)cc1" ?
13

// query: "OC1(c2ccc(Cl)c(Cl)c2)CCN(Cc2c[nH]c3ccccc23)CC1"
159

Also check "NC1(c2ccc(Cl)cc2)CCN(Cc2c[nH]c3ccccc23)CC1"
12

Then this compound: "CC(=O)NCC1(c2ccc(Cl)cc2)CCN(Cc2c[nH]c3ccccc23)CC1"
2

Try this compound too: "OC1(c2ccc(Cl)c(Cl)c2)CCN(Cc2coc3ccccc23)CC1"
8

Now the same for "CC1(c2ccc(Cl)cc2)CCN(Cc2c[nH]c3ccccc23)CC1"
3

Could you do the same for "OC1(c2ccc(F)cc2)CCN(Cc2c[nH]c3ccccc23)CC1" , please?
48

Next entry: "CCCCCCOc1ccc(C2(O)CCN(Cc3c[nH]c4ccccc34)CC2)cc1"
9

Here is the next compound: "COc1ccc(C2(O)CCN(Cc3c[nH]c4ccccc34)CC2)cc1"
4

Param item: "FC1(c2ccc(Cl)cc2)CCN(Cc2c[nH]c3ccccc23)CC1"
3

Now consider "Oc1ccc(C2(O)CCN(Cc3c[nH]c4ccccc34)CC2)cc1" .
0.3

For "OCC1(c2ccc(Cl)cc2)CCN(Cc2c[nH]c3ccccc23)CC1" then?
1

Also check "Cc1[nH]c2ccccc2c1CN1CCC(O)(c2ccc(Cl)cc2)CC1"
194

# repeat for "OC1(c2ccc(Cl)c(Cl)c2)CCN(Cc2n[nH]c3ccccc23)CC1"
2

Same question for "OC1(c2ccc(Cl)cc2)CCN(Cc2coc3ccccc23)CC1" please.
19
